Attribution: PubChem BioAssay (NCI)

System: NCI/ADR-RES ovarian
experiment-description: NCI-60 one-dose screen, 48 h (100 = growth as untreated, 0 = no growth, -100 = all killed)
condition-summary: 10 µM
About 83,000 compounds went through this panel and 20% of them were active in at least one assay; those are over-represented in the sample as a whole.
quantity-name: growth (%)
Your answer should be a plain number; it is taken to be in %.

Asked: # query: growth | item `N#Cc1ncc(-c2cc(F)ccc2F)c(NC2CCCCCC2)n1` | system: NCI/ADR-RES ovarian
Given back: 91.2

Asked: # query: growth | item `CCc1ccc(Nc2cc(C)nc3nc(C)nn23)cc1` | system: NCI/ADR-RES ovarian
Given back: -29.5

Asked: # query: growth | item `Oc1ccc(/C=N\Nc2ccccn2)c(O)c1` | system: NCI/ADR-RES ovarian
Given back: 0.0991

Asked: # query: growth | item `Cn1cnc([N+](=O)[O-])c1/C=C1\Oc2ccc(Cl)cc2C1=O` | system: NCI/ADR-RES ovarian
Given back: 100

Asked: # query: growth | item `CCCn1c(=O)c2c(nc(-c3cccc(OCCCCl)c3)n2C)n(CCC)c1=O` | system: NCI/ADR-RES ovarian
Given back: 35.9

Asked: # query: growth | item `CS(=O)(=O)Nc1ccc(Nc2c3ccccc3nc3cc(Cl)ccc23)cc1` | system: NCI/ADR-RES ovarian
Given back: 44.8

Asked: # query: growth | item NC(=O)C12C(=O)NC(=O)C1(C(=O)O)C21CCCC1 (stereo unspecified) | system: NCI/ADR-RES ovarian
Given back: 114

Asked: # query: growth | item `CC(C)C[C@H](NC(=O)Cn1ccc2ccccc2c1=O)B(O)O` | system: NCI/ADR-RES ovarian
Given back: 103

Asked: # query: growth | item `Cc1[nH]nc2c(=S)[nH]c(=O)[nH]c12` | system: NCI/ADR-RES ovarian
Given back: 100

Asked: # query: growth | item NS(=O)(=O)c1ccc(N2N=C(c3ccc(-c4ccccc4)cc3)CC2c2ccc(Cl)cc2)cc1 (stereo unspecified) | system: NCI/ADR-RES ovarian
Given back: 84.5

Asked: # query: growth | item `CCCCn1c(=O)[nH]c(N)c(C(c2ccc(Cl)cc2)c2c(N)[nH]c(=O)n(CCCC)c2=O)c1=O` | system: NCI/ADR-RES ovarian
Given back: 103

----------
What growth was measured for each of the following?
System: RPMI-8226 leukemia
experiment-description: NCI-60 one-dose screen, 48 h (100 = growth as untreated, 0 = no growth, -100 = all killed)
condition-summary: 10 µM
Experimental: Growth inhibition of the RPMI-8226 human tumor cell line is measured as a screen for anti-cancer activity. Cells are grown in 96 well plates and exposed to the test compound for 48 hours. Compounds are tested at a single concentration, which is 10^-5 M for most compounds. The reported endpoint is percent growth (GI% or GIPRCNT), where numbers from 0 - 100% represent growth inhibition, and numbers from -100% - 0 represent cell death. For example, a value of 40 represents 60% growth inhibition. […]
This is part of a sample that, as a whole, favours compounds with a hit. Of some 83,000 tested, about 20% had one in any assay.
Your answer should be a plain number; it is taken to be in %.

Asked: Sample `O=C1c2cc(Cl)ccc2-c2c(O)cc(Cl)cc21` — what was its growth?
Given back: 46.6

Asked: Sample `N#Cc1c(-c2ccccc2)nc(SCC(=O)N2CCOCC2)[nH]c1=O` — what was its growth?
Given back: 99

Asked: Sample COc1cc(C2C(C#N)=C(c3c[nH]c4ccccc34)Nc3nc(N)[nH]c(=O)c32)cc(OC)c1OC (configuration not stated) — what was its growth?
Given back: 98.2

Asked: Sample CCCCOCC(=O)NC(NP(=O)(N(C)C)N(C)C)C(Cl)(Cl)Cl (configuration not stated) — what was its growth?
Given back: 100

Asked: Sample `COc1cc(OC)cc(-c2ccc(-c3ccc(C(=N)N)cn3)o2)c1` — what was its growth?
Given back: -50

Asked: Sample `COC(=O)c1cnc2c(c1)Oc1ccc(Cl)cc1-c1cc(C)nn1-2` — what was its growth?
Given back: 95.6

Asked: Sample `COc1ccc(NC(=O)CCn2cnc3c(cc(-c4ccccc4)n3-c3ccccc3)c2=O)cc1` — what was its growth?
Given back: 93.4

Asked: Sample `O=S(=O)(NC1c2ccccc2Oc2ccccc21)c1ccccc1` — what was its growth?
Given back: 94.1

Asked: Sample COc1cccc2c1C(=O)c1c(O)c3c(c(O)c1C2=O)C[C@@](O)(C(=O)COC(=O)c1cccnc1)C[C@@H]3OC1CC(N)C(O)C(C)O1 (some centres not stated) — what was its growth?
Given back: -29

Asked: Sample `COc1ccc(-c2nnc(SCC(=O)c3ccccc3)o2)cc1` — what was its growth?
Given back: 89

Asked: Sample `O=C1CC(c2cccc(-c3cccnc3)c2)=Nc2ccc(Br)cc2N1` — what was its growth?
Given back: 40.7

Asked: Sample CC(Oc1ccc(Cl)cc1)c1ccccc1 (configuration not stated) — what was its growth?
Given back: 101

Asked: Sample `O=[N+]([O-])c1ccc(-c2nc(-c3ccccc3)c(-c3ccccc3)n2-c2ccccc2)cc1` — what was its growth?
Given back: -20.3

Asked: Sample `Fc1ccc(Nc2ccnc(N3CCN(c4ccnc5cc(Cl)ccc45)CC3)n2)cc1` — what was its growth?
Given back: 23.9

Asked: Sample `COc1cc(-c2nc3ccccc3[nH]2)ccc1OCc1nnc(-c2ccc(Br)cc2)o1` — what was its growth?
Given back: 51.5

Asked: Sample `O=C(O)c1ccccc1C(=O)c1cccc2c(F)cccc12` — what was its growth?
Given back: 104

Asked: Sample `O=c1ccc2nc(-c3ccccc3)nn(-c3ccccc3)c-2c1` — what was its growth?
Given back: -8.63

Asked: Sample Cc1cc(O)c(C2=NN(c3ccc(S(N)(=O)=O)cc3)C(c3ccc(N(C)C)cc3)C2)c(C)c1Cl (configuration not stated) — what was its growth?
Given back: -22.2

Asked: Sample `CCCCCCCCCCCCCCCCn1cc[n+](C)c1` — what was its growth?
Given back: 15.8

Asked: Sample `Oc1ccc(Cn2cc3c(c2-c2ccccc2)CCc2cnoc2-3)cc1` — what was its growth?
Given back: 82.1

Asked: Sample `CC(=O)Nc1nc(C)c(C(=O)NNC=O)s1` — what was its growth?
Given back: 118

Asked: Sample `COc1ccc2nc(-c3ccccc3)cc(C(C)=O)c2c1` — what was its growth?
Given back: 94.5

----------
Test system: HS 578T breast
experiment-description: NCI-60 one-dose screen, 48 h (100 = growth as untreated, 0 = no growth, -100 = all killed)
condition-summary: 10 µM
Description: Growth inhibition of the HS 578T human tumor cell line is measured as a screen for anti-cancer activity. Cells are grown in 96 well plates and exposed to the test compound for 48 hours. Compounds are tested at a single concentration, which is 10^-5 M for most compounds. The reported endpoint is percent growth (GI% or GIPRCNT), where numbers from 0 - 100% represent growth inhibition, and numbers from -100% - 0 represent cell death. For example, a value of 40 represents 60% growth inhibition. […]
This is part of a sample that, as a whole, favours compounds with a hit. Of some 83,000 tested, about 20% had one in any assay.
What growth was measured for each of the following?
Your answer should be a plain number; it is taken to be in %.

Asked: # query: growth | item `CCOc1nc(-c2ccccc2)cc2c(O)c(C(=O)NCCCO)[nH]c(=O)c12` | system: HS 578T breast
Given back: 100

Asked: # query: growth | item `COc1ccc(/C(=C/c2cc(OC)c(OC)cc2[N+](=O)[O-])C(=O)O)cc1` | system: HS 578T breast
Given back: 114

Asked: # query: growth | item `N#Cc1c2c([nH]c(=O)c1C(N)=O)CCCCC2` | system: HS 578T breast
Given back: 91.4

Asked: # query: growth | item `COc1ccc(-c2ccccc2)cc1C(=O)c1ccc(-c2ccccc2)cc1` | system: HS 578T breast
Given back: 81.5

Asked: # query: growth | item `COc1cccc2c1O/C(=C\c1ncc([N+](=O)[O-])n1C)C2=O` | system: HS 578T breast
Given back: -24.3

Asked: # query: growth | item `CNCCCNCCCN1C(=O)c2ccc3c4c(ccc(c24)C1=O)C(=O)N(CCCNCc1ccccc1OC)C3=O` | system: HS 578T breast
Given back: 4.28

Asked: # query: growth | item `COCc1cc2c(cc1Br)OCO2` | system: HS 578T breast
Given back: 101

Asked: # query: growth | item `CC(C)c1ncc(CO)n1Cc1c(Cl)cccc1Cl` | system: HS 578T breast
Given back: 104

Asked: # query: growth | item `CCOC(=O)c1sc(Nc2ncccn2)nc1-c1ccccn1` | system: HS 578T breast
Given back: 105

Asked: # query: growth | item `O=[N+]([O-])c1cc2ncccc2c2ncccc12` | system: HS 578T breast
Given back: 104

Asked: # query: growth | item `NC(=O)c1ccc(Br)o1` | system: HS 578T breast
Given back: 109
